B1: CASP6 (parent)
chain: TCADRDNLTRRFSDLGFEVKCFND

Variants of: B1
assayName: protein stability index of a GFP-peptide fusion (GPS, HEK-293T) (PSI 1-6); higher = more stable;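 also: lentivirally expressed fusions sorted by FACS into six bins by GFP to DsRed ratio, PSI derived from sequencing read proportions per bin multiplied by bin number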
testConditions: c terminus: a fixed tail appended
reportedMetric: protein stability index

1) D14P; 2.47
2) R11T; 3.2
3) A3G; 3.38
4) F22M; 3.96
5) T9Q; 3.49
6) C2N; 4.32
7) T1Y; 2.15
8) R10W; 2.17
9) D24I; 1.87
10) F12P; 4.32
11) A3D; 3.96
12) R5W; 2.62
13) F17Q; 4.29
14) N7C; 3.13
15) R5L; 3.5
16) L15C; 2.58
17) T9Y; 2.41
18) T9E; 3.75
19) D4A; 2.61
20) N23W; 1.41
21) G16V; 1.92
22) D6Q; 3.44
23) L8H; 3.28
24) D6C; 2.43
25) R11Y; 2.35
26) F12N; 4.35
27) D24E; 2.94
28) E18T; 3.05
29) D4F; 2.78
30) F17S; 4.17
31) E18Y; 2.29
32) T1I; 2.73
33) R5F; 2.43
34) C2S; 3.88
35) C2D; 3.81
36) F17E; 4.52
37) R5E; 3.58
38) D4T; 2.64
39) R11F; 2.33
40) N7W; 2.52
41) F17N; 4.26
42) L8G; 3.66
43) K20E; 3.6
44) F12M; 3.42
45) C2R; 3.74
46) G16I; 1.92
47) F17G; 4.34
48) K20C; 2.75
49) K20G; 3.54
50) E18W; 2.55
51) N23E; 4.66
52) T1H; 3.37
53) F17M; 3.58
54) S13Q; 3.65
55) K20H; 2.89
56) N7I; 3.22
57) T9S; 3.25
58) T9F; 1.94
59) R11Q; 3.5
60) F12G; 3.81
61) F17T; 3.75
62) E18H; 2.48
63) E18D; 3.86
64) F12Q; 3.97
65) K20D; 4.14
66) D24P; 3.24
67) L8N; 2.38
68) K20P; 3.58
69) F22L; 3.89
70) L8W; 2.79
71) T1M; 3.58
72) F17D; 4.8
73) D6E; 3.56
74) T1Q; 4.05
75) L15S; 4.02
76) D24A; 2.21
77) T1G; 3.2
78) D6G; 3.47
79) R5V; 3.5
80) L15Q; 3.43
81) G16P; 3.54
82) D14L; 2.5
83) R10H; 3.16
84) D4V; 3.05
85) V19I; 3.44
